# Experiment: physchem
# Run Parameters: pH 2.7
Outcome Measure: chromatographic logP

CON=Cc1ccc(-c2ccccc2NC(=O)c2c(C(F)F)nn(C)c2F)cc1    3.46

====

# System: Uromyces appendiculatus
# Experiment: In vivo preventive test on Uromyces appendiculatus (bean rust)
# Run Parameters: bean plants, preventive spray, 500 ppm, grading 11 days after contamination
# Description: Example: In Vivo Preventive Test on Uromyces appendiculatus (Bean Rust) […] Bean plants (“Saxa” variety), sown in starter cups on a 50/50 peat soil-pozzolana substrate and grown at 24° C., are treated at the 2-leaf stage (9 cm height) by spraying with the active ingredient prepared as described above. Plants, used as controls, are treated with the mixture of acetone/tween/DMSO/water not containing the active material. […]
Outcome Measure: Eff. % (%)

CCON=Cc1ccc(-c2c(F)cccc2NC(=O)c2c(C(F)F)nn(C)c2Cl)cc1    100
CCON=Cc1ccc(-c2ccccc2NC(=O)c2c(C(F)F)nn(C)c2Cl)c(Cl)c1    94
CON=Cc1ccc(-c2ccccc2NC(=O)c2c(C(F)F)nn(C)c2Cl)cc1Cl    100
CON=Cc1ccc(-c2ccccc2NC(=O)c2c(C(F)F)nn(C)c2Cl)cc1F    99
CCON=C(C)c1cccc(-c2cccc(NC(=O)c3c(C(F)F)nn(C)c3Cl)c2)c1    100
CCON=Cc1ccc(-c2ccccc2NC(=O)c2c(C(F)F)nn(C)c2Cl)c(F)c1    97
CC#CCON=C(C)c1ccc(-c2ccccc2NC(=O)c2c(C(F)F)nn(C)c2Cl)cc1    100
CCON=C(c1ccc(-c2ccccc2NC(=O)c2c(C(F)F)nn(C)c2F)cc1)C(F)(F)F    100
